Where these numbers come from: paper PMC4076210

# Test system: solid tumor cell lines
# Test: 3-day proliferation assay (CellTiter-Glo)
# Format: cell-based, human
# Conditions Used: Homo sapiens, OE19, OE19, Oesophagus
# Description: Various tumor cell lines were obtained from different sources including; the American Type Cell Culture Collection, the Developmental Therapeutics Program, the National Cancer Institute, the German Resource Center for Biological Material and the European Collection of Animal Cell Cultures. […] Cell growth was determined relative to untreated (DMSO) controls. EC50's were calculated from inhibition curves using a 4- or 6-parameter fitting algorithm in the Assay Client application.
Assay Endpoint: IC50 (µM)
Express your answer in µM, writing the number without its unit.

Compound	IC50, µM
Cn1ncc(Cl)c1-c1cc(C(=O)N[C@H](CN)Cc2ccc(F)c(F)c2)oc1Cl [GSK2141795]	2.28

Alright, here's another compound for you.
[ask] Record lookup: for solid tumor cell lines, what IC50 belongs to Cn1ncc(Cl)c1-c1cc(C(=O)N[C@H](CN)Cc2cccc(F)c2)sc1Cl [GSK2110183] ?
[reply] 5.52

====

# Assayed System: PKCμ (Homo sapiens)
# Sequence (Q15139 whole entry): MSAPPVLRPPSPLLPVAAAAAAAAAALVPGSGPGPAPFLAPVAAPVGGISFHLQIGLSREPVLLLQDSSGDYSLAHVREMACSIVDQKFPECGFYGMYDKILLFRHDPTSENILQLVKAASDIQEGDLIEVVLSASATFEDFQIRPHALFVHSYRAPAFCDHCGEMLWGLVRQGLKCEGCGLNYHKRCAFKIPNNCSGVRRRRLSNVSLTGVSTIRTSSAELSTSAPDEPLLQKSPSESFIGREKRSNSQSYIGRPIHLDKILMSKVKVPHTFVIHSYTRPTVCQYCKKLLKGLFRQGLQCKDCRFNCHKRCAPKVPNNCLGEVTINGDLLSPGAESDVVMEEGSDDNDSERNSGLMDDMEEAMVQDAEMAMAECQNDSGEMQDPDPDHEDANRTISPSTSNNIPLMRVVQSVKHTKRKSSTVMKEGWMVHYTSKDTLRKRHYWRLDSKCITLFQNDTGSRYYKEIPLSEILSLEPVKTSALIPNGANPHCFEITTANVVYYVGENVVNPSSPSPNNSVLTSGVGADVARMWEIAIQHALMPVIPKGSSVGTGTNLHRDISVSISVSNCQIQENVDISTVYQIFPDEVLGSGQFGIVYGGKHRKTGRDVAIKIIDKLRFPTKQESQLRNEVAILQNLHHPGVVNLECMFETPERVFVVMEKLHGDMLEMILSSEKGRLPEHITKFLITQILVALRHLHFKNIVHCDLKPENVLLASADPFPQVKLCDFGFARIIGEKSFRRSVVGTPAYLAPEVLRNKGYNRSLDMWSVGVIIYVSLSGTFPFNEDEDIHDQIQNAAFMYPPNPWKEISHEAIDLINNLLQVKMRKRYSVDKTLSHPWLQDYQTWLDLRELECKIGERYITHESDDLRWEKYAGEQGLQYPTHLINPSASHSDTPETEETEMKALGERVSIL
# Test: Kinase IC50 assay
# Type: biochemical
Assay Endpoint: IC50 (nM)
Express your answer in nM, writing the number without its unit.

[ask] // query IC50 value for entry Cn1ncc(Cl)c1-c1cc(C(=O)N[C@H](CN)Cc2ccc(F)c(F)c2)oc1Cl
[reply] 690

====

# System: hematological tumor cell lines
# Test: 3-day proliferation assay (CellTiter-Glo)
# Assay type: cell-based, human
# Conditions Used: Homo sapiens, 697 cell line; ALL; pre-B Cell
Assay Endpoint: pIC50
Lab note — pIC50 values are minus log10 of concentrations in M.

Cn1ncc(Cl)c1-c1cc(C(=O)N[C@H](CN)Cc2ccc(F)c(F)c2)oc1Cl 6.52

Alright, here's another compound for you.
[ask] // query pIC50 value for entry Cn1ncc(Cl)c1-c1cc(C(=O)N[C@H](CN)Cc2cccc(F)c2)sc1Cl
[reply] 6.13

====

Quick reference: pIC50 of the listed items.
# System: solid tumor cell lines
# Test: 3-day proliferation assay (CellTiter-Glo)
# Type: cell-based, human
# Conditions Used: Homo sapiens, PC3, Prostate
Lab note — pIC50 values are minus log10 of concentrations in M.

Cn1ncc(Cl)c1-c1cc(C(=O)N[C@H](CN)Cc2cccc(F)c2)sc1Cl 5.52

Alright, here's another compound for you.
[ask] // query pIC50 value for entry Cn1ncc(Cl)c1-c1cc(C(=O)N[C@H](CN)Cc2ccc(F)c(F)c2)oc1Cl
[reply] 5.86

====

# Test system: solid tumor cell lines
# Test: 3-day proliferation assay (CellTiter-Glo)
# Type: cell-based, human
# Conditions Used: Homo sapiens, SCLC3, Lung
Assay Endpoint: IC50 (nM)
Express your answer in nM, writing the number without its unit.

Cn1ncc(Cl)c1-c1cc(C(=O)N[C@H](CN)Cc2cccc(F)c2)sc1Cl 220

[ask] Record lookup: for solid tumor cell lines, what IC50 belongs to Cn1ncc(Cl)c1-c1cc(C(=O)N[C@H](CN)Cc2ccc(F)c(F)c2)oc1Cl ?
[reply] 54

====

# Test system: hematological tumor cell lines
# Test: 3-day proliferation assay (CellTiter-Glo)
# Assay type: cell-based, human
# Conditions Used: Homo sapiens, B-cell, EHEB cell line; CLL; B Cell
Assay Endpoint: IC50 (nM)
Express your answer in nM, writing the number without its unit.

[ask] // query IC50 value for entry Cn1ncc(Cl)c1-c1cc(C(=O)N[C@H](CN)Cc2ccc(F)c(F)c2)oc1Cl
[reply] 51

====

# Tested on: hematological tumor cell lines
# Test: 3-day proliferation assay (CellTiter-Glo)
# Assay type: cell-based, human
# Conditions Used: Homo sapiens, B-cell, HS-Sultan cell line; Burkitt's Lymphoma; B Cell
Assay Endpoint: pIC50
Lab note — pIC50 values are minus log10 of concentrations in M.

Cn1ncc(Cl)c1-c1cc(C(=O)N[C@H](CN)Cc2cccc(F)c2)sc1Cl 6.19

[ask] // query pIC50 value for entry Cn1ncc(Cl)c1-c1cc(C(=O)N[C@H](CN)Cc2ccc(F)c(F)c2)oc1Cl
[reply] 6.65

====

# System: hematological tumor cell lines
# Test: 3-day proliferation assay (CellTiter-Glo)
# Format: cell-based, human
# Conditions Used: Homo sapiens, T-cell, JR45.01 cell line; ALL; T Cell
Assay Endpoint: pIC50
Lab note — pIC50 values are minus log10 of concentrations in M.

Cn1ncc(Cl)c1-c1cc(C(=O)N[C@H](CN)Cc2ccc(F)c(F)c2)oc1Cl 7.80

Alright, here's another compound for you.
[ask] // query pIC50 value for entry Cn1ncc(Cl)c1-c1cc(C(=O)N[C@H](CN)Cc2cccc(F)c2)sc1Cl
[reply] 7.48

====

Quick reference: pIC50 of the listed items.
# Test system: solid tumor cell lines
# Test: 3-day proliferation assay (CellTiter-Glo)
# Format: cell-based, human
# Conditions Used: Homo sapiens, MDA-MB-231, MDAMB231, Breast
Lab note — pIC50 values are minus log10 of concentrations in M.

Cn1ncc(Cl)c1-c1cc(C(=O)N[C@H](CN)Cc2ccc(F)c(F)c2)oc1Cl 5.12

Alright, here's another molecule for you.
[ask] // query pIC50 value for entry Cn1ncc(Cl)c1-c1cc(C(=O)N[C@H](CN)Cc2cccc(F)c2)sc1Cl
[reply] 4.88

====

# Tested on: hematological tumor cell lines
# Test: 3-day proliferation assay (CellTiter-Glo)
# Assay type: cell-based, human
# Conditions Used: Homo sapiens, T-cell, I9.2 cell line; ALL; T Cell
Assay Endpoint: pIC50
Lab note — pIC50 values are minus log10 of concentrations in M.

[ask] // query pIC50 value for entry Cn1ncc(Cl)c1-c1cc(C(=O)N[C@H](CN)Cc2ccc(F)c(F)c2)oc1Cl [GSK2141795]
[reply] 7.37

====

Quick reference: IC50 of the listed items.
# Assayed System: P70S6K (Homo sapiens)
# Sequence (P23443 whole entry): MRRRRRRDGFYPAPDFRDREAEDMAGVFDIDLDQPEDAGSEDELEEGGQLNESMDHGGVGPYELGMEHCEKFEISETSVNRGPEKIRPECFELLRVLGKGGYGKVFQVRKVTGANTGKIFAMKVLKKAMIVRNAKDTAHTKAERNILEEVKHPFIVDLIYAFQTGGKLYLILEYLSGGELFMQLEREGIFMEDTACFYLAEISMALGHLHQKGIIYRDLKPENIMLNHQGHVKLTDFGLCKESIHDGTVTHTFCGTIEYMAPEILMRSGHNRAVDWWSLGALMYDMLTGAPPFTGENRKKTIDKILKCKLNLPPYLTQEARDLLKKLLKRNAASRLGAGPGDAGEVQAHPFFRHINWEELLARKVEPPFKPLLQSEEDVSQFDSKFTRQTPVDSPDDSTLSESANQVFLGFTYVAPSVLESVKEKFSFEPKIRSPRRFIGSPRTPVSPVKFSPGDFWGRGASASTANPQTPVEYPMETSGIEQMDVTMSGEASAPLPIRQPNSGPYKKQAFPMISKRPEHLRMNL
# Test: Kinase IC50 assay
# Assay type: biochemical
Express your answer in nM, writing the number without its unit.

Cn1ncc(Cl)c1-c1cc(C(=O)N[C@H](CN)Cc2ccc(F)c(F)c2)oc1Cl 50

Alright, here's another compound for you.
[ask] // query IC50 value for entry Cn1ncc(Cl)c1-c1cc(C(=O)N[C@H](CN)Cc2cccc(F)c2)sc1Cl
[reply] 251

====

Quick reference: pIC50 of the listed items.
# System: hematological tumor cell lines
# Test: 3-day proliferation assay (CellTiter-Glo)
# Format: cell-based, human
# Conditions Used: Homo sapiens, DB, DB cell line; Non-Hodgkin's Lymphoma; B Cell
Lab note — pIC50 values are minus log10 of concentrations in M.

Cn1ncc(Cl)c1-c1cc(C(=O)N[C@H](CN)Cc2ccc(F)c(F)c2)oc1Cl 5.28

Alright, here's another molecule for you.
[ask] // query pIC50 value for entry Cn1ncc(Cl)c1-c1cc(C(=O)N[C@H](CN)Cc2cccc(F)c2)sc1Cl
[reply] 5.20

====

# Tested on: solid tumor cell lines
# Test: 3-day proliferation assay (CellTiter-Glo)
# Assay type: cell-based, human
# Conditions Used: Homo sapiens, GCT, Sarcoma
Assay Endpoint: IC50 (µM)
Express your answer in µM, writing the number without its unit.

Molecule	Unit	Assay Value
Cn1ncc(Cl)c1-c1cc(C(=O)N[C@H](CN)Cc2cccc(F)c2)sc1Cl [GSK2110183]	µM	5.89

[ask] // query IC50 value for entry Cn1ncc(Cl)c1-c1cc(C(=O)N[C@H](CN)Cc2ccc(F)c(F)c2)oc1Cl [GSK2141795]
[reply] 3.2

====

# System: hematological tumor cell lines
# Test: 3-day proliferation assay (CellTiter-Glo)
# Assay type: cell-based, human
# Conditions Used: Homo sapiens, HH, HH cell line; Non-Hodgkin's Lymphoma (CTCL); T Cell
Quick reference: pIC50 of the listed items.
Lab note — pIC50 values are minus log10 of concentrations in M.

Compound	Assayed System	Assay Value
Cn1ncc(Cl)c1-c1cc(C(=O)N[C@H](CN)Cc2ccc(F)c(F)c2)oc1Cl [GSK2141795]	hematological tumor cell lines	7.07

Alright, here's another compound for you.
[ask] // query pIC50 value for entry Cn1ncc(Cl)c1-c1cc(C(=O)N[C@H](CN)Cc2cccc(F)c2)sc1Cl [GSK2110183]
[reply] 6.52

====

Quick reference: pIC50 of the listed items.
# Test system: hematological tumor cell lines
# Test: 3-day proliferation assay (CellTiter-Glo)
# Assay type: cell-based, human
# Conditions Used: Homo sapiens, EB1, EB1 cell line; Burkitt's Lymphoma; B Cell
Lab note — pIC50 values are minus log10 of concentrations in M.

Cn1ncc(Cl)c1-c1cc(C(=O)N[C@H](CN)Cc2cccc(F)c2)sc1Cl 6.96

Alright, here's another compound for you.
[ask] Record lookup: for hematological tumor cell lines, what pIC50 belongs to Cn1ncc(Cl)c1-c1cc(C(=O)N[C@H](CN)Cc2ccc(F)c(F)c2)oc1Cl ?
[reply] 7.31

====

# System: hematological tumor cell lines
# Test: 3-day proliferation assay (CellTiter-Glo)
# Type: cell-based, human
# Conditions Used: Homo sapiens, ST486, ST486 cell line; Burkitt's Lymphoma; B Cell
Quick reference: IC50 of the listed items.
Express your answer in nM, writing the number without its unit.

Cn1ncc(Cl)c1-c1cc(C(=O)N[C@H](CN)Cc2ccc(F)c(F)c2)oc1Cl 745

Alright, here's another molecule for you.
[ask] // query IC50 value for entry Cn1ncc(Cl)c1-c1cc(C(=O)N[C@H](CN)Cc2cccc(F)c2)sc1Cl
[reply] 2450
